# Test system: SK-MEL-5 melanoma
# METHOD SUMMARY: NCI-60 one-dose screen, 48 h
# REPORTED CONDITIONS: 10 µM unless noted
The panel holds about 83,000 compounds, 20% with a hit somewhere; the sample as a whole holds those more often. Activity calls are given as the source filed them. The calls were made as follows: active = growth percent below 10; inactive = the rest.
Select the correct class. Options are active, inactive and nothing else.

Observe how each entry below is paired with its result.
| COMPOUND | SYSTEM NAME | ASSIGNED CLASS |
| --- | --- | --- |
| O=C(CCCCC1CCSS1)Nc1ncnc2n[nH]c(-c3ccc(Oc4ccccc4)cc3)c12 (stereo not given) | SK-MEL-5 melanoma | inactive |
| O=[N+]([O-])c1ccc(S(=O)(=O)N2CCN(C3=NS(=O)(=O)c4ccccc4N3c3ccccc3)CC2)cc1 | SK-MEL-5 melanoma | inactive |
| COc1cc(CNC(=O)CCCC/C=C/C(C)C)ccc1OCc1nnc(Nc2ccc([N+](=O)[O-])cc2)o1 | SK-MEL-5 melanoma | inactive |

Q: For COc1cc2c(c(OC)c1OC)-c1ccc(OC)c(=O)cc1[C@@H](NC(=O)CCl)CC2 , which call appears in the assay record?
A: active

Q: For COc1ccc2c(c1)c(-c1noc(C(=O)c3cn(C)c4ccc(Br)cc34)n1)cn2C , which call appears in the assay record?
A: inactive

Q: For COc1cc(OC)c2sc(-c3ccc(-n4cncc4-c4ccc(OC)c(OC)c4)cc3)nc2c1 , which call appears in the assay record?
A: inactive

Q: For C#CCn1cnc2c(Nc3cccc(NC(=O)C=C)c3)ncnc21 , which call appears in the assay record?
A: inactive

Q: For N#Cc1cnc(NCCc2ccncc2)nc1-n1cnc2ccccc21 , which call appears in the assay record?
A: inactive

Q: For O=C(Cn1c2c(c3ccccc31)CCCC2)Nc1ccc(-c2nc3ccccc3s2)cc1 , which call appears in the assay record?
A: inactive

Q: For CCn1c(SCC(=O)c2ccc(Br)cc2)nnc1-c1ccncc1 , which call appears in the assay record?
A: inactive

Q: For CC(C)(C)n1cc(-c2ccnc(NCCNS(=O)(=O)c3cccc(F)c3)c2)c(-c2ccccc2)n1 , which call appears in the assay record?
A: inactive

Q: For COc1ccc(N2CCC(=O)NC2=S)cc1 , which call appears in the assay record?
A: inactive

Q: For C=C1C(=O)O[C@H]2[C@H]1CC/C(COC(=O)CSCCSCC(=O)OC/C1=C/CC[C@@]3(C)O[C@H]3[C@H]3OC(=O)C(=C)[C@@H]3CC1)=C\CC[C@@]1(C)O[C@@H]21 , which call appears in the assay record?
A: inactive

Q: For CCCCNC(=O)Oc1ccc(/C(=C(/CC)Cc2ccccc2)c2ccc(OCCN3CCCCCC3)cc2)cc1 , which call appears in the assay record?
A: inactive

Q: For Cn1ccc2c3c(ccc21)CC3=O , which call appears in the assay record?
A: inactive

Q: For CCN(CC)CCSc1nc(-c2ccccc2)c(C#N)c(=O)[nH]1 , which call appears in the assay record?
A: inactive

Q: For COc1ccc(C2c3sc4c(F)cccc4c3Oc3nc[nH]c(=O)c32)cc1 (stereo not given) , which call appears in the assay record?
A: inactive

Q: For COc1ccc(-c2csc(NC(=O)CSc3nc(-c4ccccc4)cc(=O)[nH]3)n2)cc1 , which call appears in the assay record?
A: active

Q: For O=C(Nc1nc2ccc(F)cc2s1)c1cccnc1Nc1ccc(Cl)cc1 , which call appears in the assay record?
A: active

Q: For CN(C)CC(=O)Nc1ccc2ncnc(Nc3ccc(Oc4cccc(C(F)(F)F)c4)c(Cl)c3)c2c1 , which call appears in the assay record?
A: inactive

Q: For Cc1ccc(-c2nc(/C=C3/C(=O)Nc4ccccc43)c3ccccn23)cc1 , which call appears in the assay record?
A: inactive

Q: For C=CCc1c2c(c(OC)c3ccoc13)C(=O)/C(=C/c1ccccc1OC)O2 , which call appears in the assay record?
A: inactive

Q: For CCOP(=O)(OCC)c1nc(-c2ccccc2)oc1NCc1cccnc1 , which call appears in the assay record?
A: inactive

----------
# System: SF-295 CNS
# METHOD SUMMARY: NCI-60 one-dose screen, 48 h
# REPORTED CONDITIONS: 10 µM unless noted
Compounds without any hit were thinned out: in the full panel of roughly 83,000, 20% have a hit. The source made the active and inactive calls. How the source made its calls: active means growth percent below 10; inactive means the rest.
Select the correct class. Options are active, inactive and nothing else.

| COMPOUND | ASSIGNED CLASS |
| --- | --- |
| CN1CCN(c2ccc(C(=O)Nc3cccc(C#Cc4cccc5[nH]nc(N)c45)c3)cc2C(F)(F)F)CC1 | active |
| Cc1cccc2c1NC(=O)C2(c1ccc(O)cc1)c1ccc(O)cc1 | inactive |
| O=C1/C(=C/c2ccc(Cl)cc2)COc2ccc(O)cc21 | inactive |

Q: For Nc1c(C(=O)Nc2ccccc2Cl)sc2nc3c(cc12)C(O)CCC3 (stereo not given) , which call appears in the assay record?
A: inactive

Q: For CCN(CC)CCOc1ccc(C(=C(C)c2ccc(Cl)cc2)c2ccc(OCCN(CC)CC)cc2)cc1 , which call appears in the assay record?
A: active

----------
# System: HS 578T breast
# METHOD SUMMARY: NCI-60 one-dose screen, 48 h (100 = growth as untreated, 0 = no growth, -100 = all killed)
# REPORTED CONDITIONS: 10 µM unless noted
This is part of a sample that, as a whole, favours compounds with a hit. Of some 83,000 tested, about 20% had one in any assay.
Output true for growth not less than 80%; output false otherwise.

Observe how each entry below is paired with its result.
| MOLECULE | ASSIGNED CLASS |
| --- | --- |
| C=C(C)[C@@H]1CC[C@]2(C(=O)N3CCN(C)CC3)CC[C@]3(C)[C@H](CC[C@@H]4[C@@]5(C)CC(=C/c6ccncc6)/C(=N/O)C(C)(C)[C@@H]5CC[C@]43C)[C@@H]12 | true |
| COc1cc(-c2nc3cc(Cl)c(Cl)cc3[nH]2)ccc1OCC(=O)N=Nc1c(O)[nH]c2ccc([N+](=O)[O-])cc12 | false |
| COc1cc(CNC(=O)CCCC/C=C/C(C)C)ccc1OCc1nnc(Nc2ccc([N+](=O)[O-])cc2)o1 | false |
| COc1ccc2cc(-c3ccc(NC(C)=O)c(=O)o3)ccc2c1 | true |
| O=C(Cn1cc(CN2CCCCCC2)nn1)Nc1ccc2c(ccn2Cc2ccccc2)c1 | true |
| COc1cc(C(=O)n2nc(N3CCN(C)CC3)c3cc(N)ccc32)cc(OC)c1OC | false |
| CS(=O)(=O)Nc1cc(-c2ccc3ncnc(Nc4c(Cl)ccc5c4OCO5)c3c2)cnc1Cl | false |
| COc1cccc([C@H]2c3[nH]c4ccccc4c3C[C@H]3C(=O)N(CCCCCCC(=O)NO)CC(=O)N23)c1 | false |
| C=CCn1cc(-c2nc3ccccc3s2)c2cc(-c3ccc4c5c(cccc35)C(=O)N(N)C4=O)ccc21 | true |
| CC(C)=CCC[C@](C)(O)[C@H]1CC[C@]2(C)[C@@H]1CC[C@@H]1[C@@]3(C)Cc4nccnc4C(C)(C)[C@@H]3CC[C@]12C | true |

Q: Record CCCCCOc1ccc(C(=O)/C(Br)=C/C(=O)O)cc1 ; criterion: growth no lower than 80%. Met?
A: true

Q: Record CC(=O)Cc1nsc(NC(=O)c2cc(-c3cc(Cl)cc(Cl)c3)oc2C)n1 ; criterion: growth no lower than 80%. Met?
A: true

Q: Record C#CCOc1cccc(Nc2ncnc3ccc(NC(=O)CCl)cc23)c1 ; criterion: growth no lower than 80%. Met?
A: false

Q: Record COc1ccc(C2=Nc3c/c(=C\c4c(O)[nH]c5ccc(Cl)cc45)ccc3=N2)cc1 ; criterion: growth no lower than 80%. Met?
A: false

----------
# System: MDA-MB-231 breast
# METHOD SUMMARY: NCI-60 one-dose screen, 48 h (100 = growth as untreated, 0 = no growth, -100 = all killed)
# REPORTED CONDITIONS: 10 µM unless noted
Compounds without any hit were thinned out: in the full panel of roughly 83,000, 20% have a hit.
PROPERTY LABEL: growth (%)
Report as a plain number; the unit % is understood.

Reference set, count: 5
| MOLECULE | PROPERTY LABEL | READOUT UNIT | RECORDED RESULT |
| --- | --- | --- | --- |
| N#Cc1c(-c2cccs2)cc(-c2cccnc2)[nH]c1=O | growth | % | 105 |
| CC1(C)CC2=C3C=C[C@@H]4[C@@]5(C)CCC(=O)C(C)(C)[C@@H]5CC[C@@]4(C)[C@]3(C)CC[C@@]2(C(=O)O)CC1=O | growth | % | 75.3 |
| O=C1Nc2ccccc2/C1=C\c1nc(-c2ccccc2)n2ccccc12 | growth | % | 60.6 |
| Nc1ncnc2c1N=C(c1ccc3c(c1)OCO3)CC(c1cccc(Nc3ccnc4cc(Cl)ccc34)c1)N2 (centres undefined) | growth | % | 70.1 |
| O=C(CSc1nc2ccc([N+](=O)[O-])cc2[nH]1)Nc1cccc(C(F)(F)F)c1 | growth | % | 38.5 |

Q: Give growth (MDA-MB-231 breast) of the following molecule: COc1ccc(/C=N/NC(=O)CCN2c3ccccc3Sc3ccccc32)cc1
A: 76.6

Q: Give growth (MDA-MB-231 breast) of the following molecule: CC(=O)c1cc(O)c2ccccc2c1O
A: 87.2

Q: Give growth (MDA-MB-231 breast) of the following molecule: c1ccc(CNc2c3ccccc3nc3ccccc23)cc1
A: 57.9

Q: Give growth (MDA-MB-231 breast) of the following molecule: CO[C@H]1/C=C(/C)CCC[C@H](C)[C@H](O)[C@@H](C)C(=O)C(C)(C)[C@@H](O)CC(=O)O[C@@H]1/C(C)=C/c1csc(C)n1
A: 10.3
